Test: AUC (0 to 6 hrs) in rat at 10 mg/kg, po
Type: ADME, organism-based
Set-up: time < 6 hr, dose 10 mg/kg, route oral
Conditions: plasma
readout: AUC(0-t) at 6 h (µM·h)
State just the number; it will be interpreted in µM·h.

Problem: # input compound: `COc1ccc2c(c1)[C@@H]1C[C@]1(C(=O)N1C3CC1CN(C)C3)Cn1c-2c(C2CCCCC2)c2ccc(C(=O)NS(=O)(=O)N(C)C)cc21` ; wanted: its AUC(0-t) at 6 h
Solution: 4.93

* * *

Target: Cytochrome P450 3A4 (Homo sapiens)
Sequence (P08684 whole entry): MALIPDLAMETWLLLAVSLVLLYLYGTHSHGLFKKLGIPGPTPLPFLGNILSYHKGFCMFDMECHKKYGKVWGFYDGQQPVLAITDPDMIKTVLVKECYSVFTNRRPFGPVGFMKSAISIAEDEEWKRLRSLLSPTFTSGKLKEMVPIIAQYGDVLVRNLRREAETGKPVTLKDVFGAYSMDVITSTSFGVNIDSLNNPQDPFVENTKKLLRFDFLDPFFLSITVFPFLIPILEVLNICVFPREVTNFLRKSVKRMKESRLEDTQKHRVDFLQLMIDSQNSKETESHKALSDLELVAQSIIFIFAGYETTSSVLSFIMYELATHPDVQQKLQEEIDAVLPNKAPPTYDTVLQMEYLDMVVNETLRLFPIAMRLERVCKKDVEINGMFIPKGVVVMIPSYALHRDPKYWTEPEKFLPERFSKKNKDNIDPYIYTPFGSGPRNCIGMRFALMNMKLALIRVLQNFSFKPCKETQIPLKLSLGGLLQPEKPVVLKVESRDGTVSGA
Assay: Inhibition of CYP3A4 in human liver microsomes using benzyloxyresorufin as substrate after 30 mins in presence of NADPH
readout: EC50 (µM)
State just the number; it will be interpreted in µM.

Please review the entries below; each comes with its answer.
>>> reported("CCN1CC2CC(C1)N2C(=O)[C@]12C[C@H]1c1cc(OC)ccc1-c1c(C3CCCCC3)c3ccc(C(=O)NS(=O)(=O)N(C)C)cc3n1C2")
9
>>> reported("COc1ccc2c(c1)C1CC1(C(=O)N1C3CC1CN(Cc1ccccc1)C3)Cn1c-2c(C2CCCCC2)c2ccc(C(=O)NS(=O)(=O)N(C)C)cc21 (racemic)")
13

Shifting focus to the compound that follows.
Problem: # input compound: `COc1ccc2c(c1)[C@@H]1C[C@]1(C(=O)N1C3CC1CN(C)C3)Cn1c-2c(C2CCCCC2)c2ccc(C(=O)NS(=O)(=O)N(C)C)cc21` ; wanted: its EC50
Solution: 14

* * *

Molecular target: CYP2C19 (Homo sapiens)
Sequence (P33261 whole entry): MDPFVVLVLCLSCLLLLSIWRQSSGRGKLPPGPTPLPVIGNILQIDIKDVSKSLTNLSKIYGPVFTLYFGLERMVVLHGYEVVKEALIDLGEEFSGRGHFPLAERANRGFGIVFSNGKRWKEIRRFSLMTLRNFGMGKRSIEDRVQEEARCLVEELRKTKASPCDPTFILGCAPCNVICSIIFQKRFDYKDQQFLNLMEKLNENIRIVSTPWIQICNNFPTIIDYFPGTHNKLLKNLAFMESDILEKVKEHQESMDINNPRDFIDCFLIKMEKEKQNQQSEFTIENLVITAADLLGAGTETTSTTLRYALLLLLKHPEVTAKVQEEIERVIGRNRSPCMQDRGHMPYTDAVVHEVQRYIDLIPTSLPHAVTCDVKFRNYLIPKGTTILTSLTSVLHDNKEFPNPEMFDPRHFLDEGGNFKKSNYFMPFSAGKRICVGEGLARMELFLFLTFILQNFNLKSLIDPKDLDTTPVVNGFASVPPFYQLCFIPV
Test: Inhibition of CYP2C19 (unknown origin)
pIC50: −log10 of the molar value.
readout: pIC50

Problem: # input compound: COc1ccc2c(c1)[C@@H]1C[C@]1(C(=O)N1[C@@H]3CC[C@H]1CN(C)C3)Cn1c-2c(C2CCCCC2)c2ccc(C(=O)NS(=O)(=O)N(C)C)cc21 [BECLABUVIR] ; wanted: its pIC50
Solution: < 4.40

* * *

Molecular target: Voltage-gated inwardly rectifying potassium channel KCNH2 (Homo sapiens, UniProt Q12809)
Sequence (Q12809 whole entry): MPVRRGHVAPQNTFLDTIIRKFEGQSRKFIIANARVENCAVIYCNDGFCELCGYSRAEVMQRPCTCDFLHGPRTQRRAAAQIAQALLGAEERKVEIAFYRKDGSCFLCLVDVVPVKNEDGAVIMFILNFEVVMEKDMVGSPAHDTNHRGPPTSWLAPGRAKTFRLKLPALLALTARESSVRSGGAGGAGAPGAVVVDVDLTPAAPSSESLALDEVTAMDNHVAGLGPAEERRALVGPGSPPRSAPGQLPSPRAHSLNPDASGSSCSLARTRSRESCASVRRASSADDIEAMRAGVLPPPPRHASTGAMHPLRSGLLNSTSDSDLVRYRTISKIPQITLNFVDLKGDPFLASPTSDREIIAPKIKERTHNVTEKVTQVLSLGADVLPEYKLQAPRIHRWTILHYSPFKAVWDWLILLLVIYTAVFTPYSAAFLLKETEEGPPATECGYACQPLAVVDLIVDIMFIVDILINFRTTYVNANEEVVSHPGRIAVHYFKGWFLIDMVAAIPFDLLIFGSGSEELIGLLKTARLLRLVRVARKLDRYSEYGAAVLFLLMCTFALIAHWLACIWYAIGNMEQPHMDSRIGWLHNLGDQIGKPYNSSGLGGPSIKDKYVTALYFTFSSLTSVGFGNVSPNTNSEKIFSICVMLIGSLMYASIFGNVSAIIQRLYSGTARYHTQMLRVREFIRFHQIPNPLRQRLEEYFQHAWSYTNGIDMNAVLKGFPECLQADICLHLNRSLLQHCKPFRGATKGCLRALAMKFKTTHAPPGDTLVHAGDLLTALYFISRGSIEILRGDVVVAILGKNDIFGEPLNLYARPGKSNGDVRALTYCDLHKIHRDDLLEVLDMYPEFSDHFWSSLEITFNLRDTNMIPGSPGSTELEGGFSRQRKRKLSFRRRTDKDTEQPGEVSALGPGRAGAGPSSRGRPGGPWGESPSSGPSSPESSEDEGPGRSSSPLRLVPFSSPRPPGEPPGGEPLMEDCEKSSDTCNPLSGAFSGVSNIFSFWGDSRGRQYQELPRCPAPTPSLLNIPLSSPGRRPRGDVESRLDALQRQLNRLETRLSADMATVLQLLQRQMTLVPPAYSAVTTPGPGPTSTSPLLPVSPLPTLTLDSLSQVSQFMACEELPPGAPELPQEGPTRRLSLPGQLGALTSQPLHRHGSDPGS
Assay: Inhibition of human ERG by patch-clamp assay
readout: pIC50
Note: pIC50 values are expressed as the negative base-10 logarithm of concentration in M.

Problem: # input molecule: `COc1ccc2c(c1)[C@@H]1C[C@]1(C(=O)N1[C@@H]3CC[C@H]1CN(C)C3)Cn1c-2c(C2CCCCC2)c2ccc(C(=O)NS(=O)(=O)N(C)C)cc21` ; wanted: its pIC50
Solution: 4.91

* * *

Test system: Liver microsome
Conditions: rat, microsomes
readout: Stability (%)
State just the number; it will be interpreted in %.

Please review the entries below; each comes with its answer.
>>> reported("COc1ccc2c(c1)C1CC1(C(=O)N1C3CC1CN(C)C3)Cn1c-2c(C2CCCCC2)c2ccc(C(=O)NS(=O)(=O)N(C)C)cc21 (racemic)")
100
>>> reported("COc1ccc2c(c1)C1CC1(C(=O)N1CC(O)(C(C)C)C1)Cn1c-2c(C2CCCCC2)c2ccc(C(=O)NS(=O)(=O)N(C)C)cc21 (racemic)")
100
>>> reported("COc1ccc2c(c1)[C@@H]1C[C@]1(C(=O)N1[C@@H]3CC[C@H]1CN(C)C3)Cn1c-2c(C2CCCCC2)c2ccc(C(=O)NS(=O)(=O)N(C)C)cc21 [BECLABUVIR]")
99
>>> reported("COc1ccc2c(c1)C1CC1(C(=O)N1CC(C)(O)C1)Cn1c-2c(C2CCCCC2)c2ccc(C(=O)NS(=O)(=O)N(C)C)cc21 (racemic)")
85

Problem: # input molecule: CCN1CC2CCC(C1)N2C(=O)C12CC1c1cc(OC)ccc1-c1c(C3CCCCC3)c3ccc(C(=O)NS(=O)(=O)N(C)C)cc3n1C2 (racemic) ; wanted: its Stability
Solution: 98

Problem: Likewise for COc1ccc2c(c1)C1CC1(C(=O)N1CC3CCC(C1)N3)Cn1c-2c(C2CCCCC2)c2ccc(C(=O)NS(=O)(=O)N(C)C)cc21 (racemic) ?
Solution: 100

* * *

Molecular target: RNA-directed RNA polymerase (Hepacivirus hominis, UniProt O39930, P495A)
Sequence (O39930 entry or part of it P495A): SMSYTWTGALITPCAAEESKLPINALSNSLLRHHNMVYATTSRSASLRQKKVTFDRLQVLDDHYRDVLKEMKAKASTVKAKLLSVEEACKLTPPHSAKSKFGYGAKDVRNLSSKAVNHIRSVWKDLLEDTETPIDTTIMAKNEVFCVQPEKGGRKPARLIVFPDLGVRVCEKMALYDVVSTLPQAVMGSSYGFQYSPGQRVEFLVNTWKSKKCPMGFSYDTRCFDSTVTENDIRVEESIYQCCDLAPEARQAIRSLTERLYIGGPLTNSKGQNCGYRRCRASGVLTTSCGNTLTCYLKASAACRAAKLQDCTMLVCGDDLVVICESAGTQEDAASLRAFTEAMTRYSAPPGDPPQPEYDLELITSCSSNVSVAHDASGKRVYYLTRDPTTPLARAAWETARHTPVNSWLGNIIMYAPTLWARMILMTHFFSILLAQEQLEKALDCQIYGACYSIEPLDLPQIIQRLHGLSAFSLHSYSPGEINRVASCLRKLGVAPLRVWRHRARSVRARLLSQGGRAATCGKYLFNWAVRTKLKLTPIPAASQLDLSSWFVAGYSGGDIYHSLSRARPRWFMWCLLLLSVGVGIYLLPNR
Experiment: Inhibition of HCV Con1 genotype 1b NS5B RNA dependent RNA polymerase P495A mutant-mediated incorporation of radiolabeled nucleotides by scintillation proximity assay
Parameters: species or system Hepatitis C virus (isolate Con1)
readout: pEC50
Note: pEC50 values are expressed as the negative base-10 logarithm of concentration in M.

Please review the entries below; each comes with its answer.
>>> reported("CN(C)S(=O)(=O)NC(=O)c1ccc2c(C3CCCCC3)c3n(c2c1)CC1(C(=O)N2CCOCC2)CC1c1ccccc1-3 (racemic)")
6.78
>>> reported("CN(C)S(=O)(=O)NC(=O)c1ccc2c(C3CCCCC3)c3n(c2c1)C[C@]1(C(=O)N2CCOCC2)C[C@@H]1c1ccccc1-3")
6.20
>>> reported("O=C(O)c1ccc2c(C3CCCCC3)c3n(c2c1)CC(C(=O)N1CCOCC1)=Cc1ccccc1-3")
5.47
>>> reported("COc1ccc2c(c1)C1CC1(C(=O)N1CCOCC1)Cn1c-2c(C2CCCCC2)c2ccc(C(=O)NS(=O)(=O)N(C)C)cc21 (racemic)")
6.41

Shifting focus to the molecule that follows.
Problem: # input molecule: `COc1ccc2c(c1)C=C(C(=O)N1CCOCC1)Cn1c-2c(C2CCCCC2)c2ccc(C(=O)NS(=O)(=O)N(C)C)cc21` ; wanted: its pEC50
Solution: 6.62

* * *

Assay: Volume of distribution in rat at 5 mg/kg, iv
Details: in vivo
readout: Vd (L/kg)
State just the number; it will be interpreted in L/kg.

Problem: # input compound: COc1ccc2c(c1)[C@@H]1C[C@]1(C(=O)N1[C@@H]3CC[C@H]1CN(C)C3)Cn1c-2c(C2CCCCC2)c2ccc(C(=O)NS(=O)(=O)N(C)C)cc21 [BECLABUVIR] ; wanted: its Vd
Solution: 2.7

* * *

Tested on: Hepatitis C virus
Test: Antiviral activity against Hepatitis C virus H77c genotype 1a infected in human HuH7 cells after 3 days by FRET assay
Format: functional, organism-based, Hepacivirus hominis
Details: genotype 1a H77, Huh-7, 72 h
readout: EC50 (nM)
State just the number; it will be interpreted in nM.

Please review the entries below; each comes with its answer.
>>> reported("CN(C)S(=O)(=O)NC(=O)c1ccc2c(C3CCCCC3)c3n(c2c1)C[C@@]1(C(=O)N2CCOCC2)C[C@H]1c1ccccc1-3")
26
>>> reported("CN(C)S(=O)(=O)NC(=O)c1ccc2c(C3CCCCC3)c3n(c2c1)CC1(C(=O)N2CCOCC2)CC1c1ccccc1-3 (racemic)")
44
>>> reported("O=C(O)c1ccc2c(C3CCCCC3)c3n(c2c1)CC(C(=O)N1CCOCC1)=Cc1ccccc1-3")
404
>>> reported("COc1ccc2c(c1)[C@@H]1C[C@]1(C(=O)N1[C@@H]3CC[C@H]1CN(C)C3)Cn1c-2c(C2CCCCC2)c2ccc(C(=O)NS(=O)(=O)N(C)C)cc21")
3
>>> reported("COc1ccc2c(c1)C1CC1(C(=O)N1C[C@@H](C)N(C(C)=O)[C@@H](C)C1)Cn1c-2c(C2CCCCC2)c2ccc(C(=O)NS(=O)(=O)N(C)C)cc21 (mixture of isomers)")
24

Shifting focus to the compound that follows.
Problem: Form: Entry = COc1ccc2c(c1)C1CC1(C(=O)N1C3CNCC1C3)Cn1c-2c(C2CCCCC2)c2ccc(C(=O)NS(=O)(=O)N(C)C)cc21 (racemic) | System = Hepatitis C virus | EC50 = ____
Solution: 23

* * *

Assay: Half life in dog liver microsomes
Format: ADME, Canis lupus familiaris
readout: half-life

Problem: # input compound: COc1ccc2c(c1)[C@@H]1C[C@]1(C(=O)N1[C@@H]3CC[C@H]1CN(C)C3)Cn1c-2c(C2CCCCC2)c2ccc(C(=O)NS(=O)(=O)N(C)C)cc21 [BECLABUVIR] ; wanted: its half-life
Solution: > 3.33 h

* * *

System: Coxsackievirus
Test: Antiviral activity against Coxsackievirus
Format: functional, organism-based
pEC50: −log10 of the molar value.
readout: pEC50

Problem: # input molecule: `COc1ccc2c(c1)[C@@H]1C[C@]1(C(=O)N1[C@@H]3CC[C@H]1CN(C)C3)Cn1c-2c(C2CCCCC2)c2ccc(C(=O)NS(=O)(=O)N(C)C)cc21` ; wanted: its pEC50
Solution: < 4.85

* * *

Target: Cytochrome P450 2C9 (Homo sapiens, UniProt P11712)
Sequence (P11712 whole entry): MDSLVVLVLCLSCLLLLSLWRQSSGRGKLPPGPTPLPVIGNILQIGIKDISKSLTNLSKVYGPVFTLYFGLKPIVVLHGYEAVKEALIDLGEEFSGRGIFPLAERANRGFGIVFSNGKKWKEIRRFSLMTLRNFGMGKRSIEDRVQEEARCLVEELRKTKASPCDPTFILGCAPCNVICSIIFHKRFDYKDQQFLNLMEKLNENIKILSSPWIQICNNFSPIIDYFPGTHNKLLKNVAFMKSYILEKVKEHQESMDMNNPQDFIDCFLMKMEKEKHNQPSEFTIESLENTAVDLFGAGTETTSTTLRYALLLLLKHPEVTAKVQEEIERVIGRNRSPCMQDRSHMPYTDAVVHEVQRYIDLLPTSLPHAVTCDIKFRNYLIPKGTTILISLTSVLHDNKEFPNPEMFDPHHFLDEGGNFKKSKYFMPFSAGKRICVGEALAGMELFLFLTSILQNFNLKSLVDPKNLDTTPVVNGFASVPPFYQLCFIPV
Experiment: Inhibition of CYP2C9 in human liver microsomes after 30 mins in presence of NADPH
Readings of EC50 for the listed compounds

Please review the entries below; each comes with its answer.
>>> reported("COc1ccc2c(c1)C1CC1(C(=O)N1C3CC1CN(Cc1ccccc1)C3)Cn1c-2c(C2CCCCC2)c2ccc(C(=O)NS(=O)(=O)N(C)C)cc21 (racemic)")
"7 µM"
>>> reported("CCN1CC2CC(C1)N2C(=O)[C@]12C[C@H]1c1cc(OC)ccc1-c1c(C3CCCCC3)c3ccc(C(=O)NS(=O)(=O)N(C)C)cc3n1C2")
"> 40 µM"
>>> reported("COc1ccc2c(c1)[C@@H]1C[C@]1(C(=O)N1C3CC1CN(C)C3)Cn1c-2c(C2CCCCC2)c2ccc(C(=O)NS(=O)(=O)N(C)C)cc21")
"> 40 µM"

Problem: # input compound: COc1ccc2c(c1)C1CC1(C(=O)N1C3CNCC1C3)Cn1c-2c(C2CCCCC2)c2ccc(C(=O)NS(=O)(=O)N(C)C)cc21 (racemic) ; wanted: its EC50
Solution: > 40 µM

Entry source: ChEMBL document CHEMBL3124792
